Target: Human TRPV3 (Homo sapiens)
Construct: expressed in transfected cells; host or cells: CHO cells (selected with G-418)
Test: 45Calcium uptake assay: inhibition of 2-APB induced cellular uptake of radioactive calcium
Assay type: cell-based
Details: 1 μM test compound; human TRPV3 expressing CHO cells; 2-APB 500 μM; read-out: Percentage Inhibition (1 μM)
metric.name: inhibition at 1 µM (%)
Give bare numbers, in %.

Solved entries:
COc1cccc(/C=C/c2nc3cccnc3n2-c2ccc(C#N)cn2)c1OCC1CC1	74.2
COc1cccc(/C=C/c2nc3ccccc3n2-c2ccc(C#N)cc2)c1OCC1CC1	78.2
COc1cccc(/C=C/c2nc3cc(C(F)(F)F)ccc3n2-c2ccc(C#N)cn2)c1OC1CCCC1	93
N#Cc1ccc(-n2c(/C=C/c3cccc(OC(F)F)c3OC3CCCC3)nc3cccnc32)nc1	95.9
CCCCCOc1c(/C=C/c2nc3cccnc3n2-c2ccc(C#N)cn2)cccc1OC	95.7
COc1cccc(/C=C/c2nc3ccccc3n2-c2ccc([N+](=O)[O-])cn2)c1OC1CCCC1	50.9
CCCCCOc1c(/C=C/c2nc3cccnc3n2-c2ccc(C#N)cn2)cccc1OC(F)F	97.1
COc1cccc(/C=C/c2nc3ccccc3n2-c2ccc(F)c(C#N)c2)c1OCC1CC1	48.3

Dear colleague, could you send me inhibition at 1 µM for each of the items below? Thanks.
1. CCCCCOc1c(/C=C/c2nc3cc(F)c(F)cc3n2-c2ccc(C#N)cn2)cccc1OC(F)F
2. COc1cccc(/C=C/c2nc3ccccc3n2-c2ccc(C#N)cn2)c1OCc1ccc(F)cc1F

Reply:
1: 97; 2: 94.2

* * *

Target: Human TRPV3 (Homo sapiens, UniProt Q8NET8)
Construct: expressed in transfected cells; host or cells: CHO cells (selected with G-418)
Sequence (Q8NET8 whole entry): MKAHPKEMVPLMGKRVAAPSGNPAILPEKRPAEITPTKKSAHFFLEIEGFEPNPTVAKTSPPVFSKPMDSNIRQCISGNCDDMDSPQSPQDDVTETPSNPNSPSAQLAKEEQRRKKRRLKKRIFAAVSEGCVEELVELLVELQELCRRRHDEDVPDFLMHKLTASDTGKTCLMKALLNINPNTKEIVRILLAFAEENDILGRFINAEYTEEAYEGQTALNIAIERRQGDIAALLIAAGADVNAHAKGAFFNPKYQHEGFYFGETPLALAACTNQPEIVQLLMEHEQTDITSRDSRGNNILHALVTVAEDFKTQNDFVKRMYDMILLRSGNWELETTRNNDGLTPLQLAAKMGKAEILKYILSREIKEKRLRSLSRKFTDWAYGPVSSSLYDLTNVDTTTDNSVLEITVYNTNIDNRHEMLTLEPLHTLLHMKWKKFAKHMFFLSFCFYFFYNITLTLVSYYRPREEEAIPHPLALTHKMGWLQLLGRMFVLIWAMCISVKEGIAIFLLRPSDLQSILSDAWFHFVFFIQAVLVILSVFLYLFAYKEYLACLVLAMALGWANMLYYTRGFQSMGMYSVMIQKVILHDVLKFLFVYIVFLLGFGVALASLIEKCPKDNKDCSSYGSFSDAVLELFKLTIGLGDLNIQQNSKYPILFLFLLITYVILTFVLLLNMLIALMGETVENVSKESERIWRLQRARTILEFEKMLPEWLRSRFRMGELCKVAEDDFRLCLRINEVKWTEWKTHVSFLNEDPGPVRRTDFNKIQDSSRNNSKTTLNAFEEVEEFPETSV
Assay: 45Calcium uptake assay: inhibition of 2-APB induced cellular uptake of radioactive calcium
Format: cell-based
Details: class symbol; human TRPV3 expressing CHO cells; 2-APB 500 μM
pIC50: −log10 of the molar value.
Give measured pIC50 for each item. Keep answers brief.

COc1cccc(/C=C/c2nc3cc(Cl)ccc3n2-c2ccc(C#N)cn2)c1OC1CCCC1	6.30 to 7.00
CCC(CC)Oc1c(/C=C/c2nc3ccccc3n2-c2ncc(Br)cn2)cccc1OC	6.30 to 7.00
COc1cccc(/C=C/c2nc3ccccc3n2-c2ccc(C#N)cc2)c1OCc1ccccc1	< 6.30

Dear colleague, could you send me pIC50 for each of the items below? Thanks.
1. COc1cccc(/C=C/c2nc3ccc(Cl)cc3n2-c2ccc(C#N)cn2)c1OCC(C)C
2. COc1cccc(/C=C/c2nc3cccnc3n2-c2ccc(C#N)cn2)c1OCC1CC1
3. COc1cccc(/C=C/c2nc3ccccc3n2-c2ccc(C(F)(F)F)cc2)c1OCC1CC1
4. COc1cccc(/C=C/c2nc3cc(F)c(F)cc3n2-c2ccc(C#N)cn2)c1OCC1CCC1
5. COc1cccc(/C=C/c2nc3ccccc3n2-c2ccc(C#N)cn2)c1OCc1ccc(F)cc1F
6. COc1cccc(/C=C/c2nc3cc(OC(F)F)ccc3n2-c2ccc(C#N)cn2)c1OC1CCCC1

Reply:
7.00 to 7.30
6.30 to 7.00
6.30 to 7.00
> 7.30
6.30 to 7.00
7.00 to 7.30

Dear colleague, could you send me pIC50 for each of the items below? Thanks.
1. CCCCOc1c(/C=C/c2nc3cc(F)c(F)cc3n2-c2ccc(C#N)cn2)cccc1OC
2. COc1ccc2c(c1)nc(/C=C/c1cccc(OC)c1OC1CCCC1)n2-c1ccc(C#N)cn1
3. COc1cccc(/C=C/c2nc3ccccc3n2-c2ccc(C#N)cc2)c1OCC1CC1

Reply:
1. 6.30 to 7.00
2. 6.30 to 7.00
3. 6.30 to 7.00
